biological target: T1, Recombinant Cx43CT (carboxyl terminal domain of rat connexin43, residues 255-382, preceded by GPLG) (rat, UniProt P08050 255-382); experiment: SPR, peptide 1.0 mM
T1 construct: range 255-382; Made in E. coli as a GST fusion (pGEX-6P-2) and cleaved from GST; the protein used was derived from rat cDNA; 15N-labeled for NMR; also called recombinant CT; 15N-Cx43CT
T1 sequence (P08050 other isoform, or with tags, fused parts or gaps limits assumed): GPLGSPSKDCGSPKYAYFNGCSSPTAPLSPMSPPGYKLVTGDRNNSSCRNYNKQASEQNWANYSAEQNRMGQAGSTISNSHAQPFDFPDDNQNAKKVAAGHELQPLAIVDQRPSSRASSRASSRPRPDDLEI
Measurement kind: Response Dose (arbitrary units)
Quick note: give the figure in arbitrary units, leave out the unit.

# count of solved cases: 3
binder="Ac-RRNP-NH2 [Peptide 2505, AcRRNP-NH2]" measure_unit="arbitrary units" quantitative_result=34.9
binder="Ac-RNPRNP-NH2 [Peptide 2501, AcRNPRNP-NH2]" measure_unit="arbitrary units" quantitative_result=24.8
binder="Ac-RRKPRRKP-NH2 [Peptide 2503, AcRRKPRRKP-NH2]" measure_unit="arbitrary units" quantitative_result=295

// next item, Response Dose requested
# get_value(readout='Response Dose', item= Ac-RRKP-NH2 [Peptide 2504, AcRRKP-NH2] )
46.5
